Catalogue of IC50 values
System: OVCAR3 cells
Protocol Summary: MTT cytotoxicity, OVCAR3 ovarian cancer cells
Test Settings: read-out: IC50 OVCAR3; MTT, 24 h incubation
Experimental Readout: IC50

Compound	System Tested	Result
N.N.[Cl][Pt][Cl] [cisplatin, reference compound]	OVCAR3 cells	13 µM
CC(=O)[O-].[Ag+] [Ag(CH3COO), silver acetate, reference compound]	OVCAR3 cells	3.38 µM
[Cl][Cu][Cl] [CuCl2, reference compound]	OVCAR3 cells	> 100 µM
[Cl][Cu] [CuCl, reference compound]	OVCAR3 cells	> 100 µM
